The measured values listed here are drawn from paper PMC10350924.

target: Human recombinant sEH (Homo sapiens, UniProt P34913); assay: Cell-free sEH activity (PHOME fluorescence); details: human isolated sEH
Sequence (P34913 whole entry): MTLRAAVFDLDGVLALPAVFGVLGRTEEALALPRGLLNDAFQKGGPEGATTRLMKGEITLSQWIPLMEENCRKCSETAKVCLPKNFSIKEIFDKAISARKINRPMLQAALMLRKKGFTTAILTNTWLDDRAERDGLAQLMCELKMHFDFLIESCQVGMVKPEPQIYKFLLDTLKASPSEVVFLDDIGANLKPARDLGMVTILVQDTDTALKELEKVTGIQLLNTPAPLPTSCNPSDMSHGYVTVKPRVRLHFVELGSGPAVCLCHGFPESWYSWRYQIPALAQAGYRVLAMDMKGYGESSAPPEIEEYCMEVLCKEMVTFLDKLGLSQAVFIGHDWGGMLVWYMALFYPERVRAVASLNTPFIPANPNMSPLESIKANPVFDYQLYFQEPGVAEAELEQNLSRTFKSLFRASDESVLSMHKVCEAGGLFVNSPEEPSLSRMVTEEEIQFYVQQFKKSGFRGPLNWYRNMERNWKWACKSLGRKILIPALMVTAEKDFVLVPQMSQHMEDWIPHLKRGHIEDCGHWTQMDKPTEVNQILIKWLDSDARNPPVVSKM
VALUE_TYPE: IC50 (nM)

Worked set:
- COMPOUND: "Fc1ccc(CN2CCc3cc(NC(=S)NCC45C[C@H]6C[C@@H](C4)C[C@@H](C5)C6)ccc32)cc1 [Compound 10]"
  VALUE_TYPE: "IC50"
  ENDPOINT_UNIT: "nM"
  NUMERIC_RESULT: 288
- COMPOUND: "COC(=O)c1ccc(Cn2ccc3cc(NC(=O)NCC45C[C@H]6C[C@@H](C4)C[C@@H](C5)C6)ccc32)cc1 [Compound 29]"
  VALUE_TYPE: "IC50"
  ENDPOINT_UNIT: "nM"
  NUMERIC_RESULT: 11.4
- COMPOUND: "O=C(NCC12C[C@H]3C[C@@H](C1)C[C@@H](C2)C3)Nc1ccc2c(ccn2CCc2ccc(F)cc2)c1 [Compound 30]"
  VALUE_TYPE: "IC50"
  ENDPOINT_UNIT: "nM"
  NUMERIC_RESULT: 1.1

[1] O=C(NCC12C[C@H]3C[C@@H](C1)C[C@@H](C2)C3)Nc1ccc2c(ccn2Cc2ccc(F)cc2)c1 [Compound 27]
[2] O=C(Nc1ccc2c(c1)CCN2Cc1ccc(F)cc1)C12C[C@H]3C[C@@H](C1)C[C@@H](C2)C3 [Compound 3]
Task item: For this pair, 1 and 2 , which shows a numerically higher IC50? # answer = label of selected item
Reply: 2
(2: 285 nM, 1: 1.75 nM)
